Test system: Enterococcus faecium
Assay: Minimum inhibitory concentration against Enterococcus faecium […]
Type: functional
Lab note: anything with MIC below 20 µM is marked Y; values at 20 µM or higher are marked N.

{"compound": "CN(C)CCNc1ccc(C(=O)/C=C/c2ccc(Cl)cc2Cl)cc1", "assignedCategory": "N"}
{"compound": "CN(C)CCNc1ccc(C(=O)/C=C/c2ccc(Oc3ccccc3)cc2)cc1", "assignedCategory": "Y"}
{"compound": "COc1ccc(C(=O)/C=C/c2cc(-c3cccnc3)ccc2N2CCN(C)CC2)c(F)c1", "assignedCategory": "N"}
{"compound": "COc1ccc(C(=O)/C=C/c2ccccc2OCCN(C)C)c(F)c1", "assignedCategory": "N"}
{"compound": "Cc1cc(C)cc(-c2ccc(N(C)CCN(C)C)c(/C=C/C(=O)c3cccc(NCCN(C)C)c3)c2)c1", "assignedCategory": "Y"}
{"compound": "Cc1cc(C)cc(-c2ccc(OCCN(C)C)c(/C=C/C(=O)c3cccc(CN(C)C)c3)c2)c1", "assignedCategory": "Y"}
{"compound": "COc1ccc(C(=O)/C=C/c2cc(-c3cc(C)cc(C)c3)ccc2OCCN(C)C)c(F)c1", "assignedCategory": "Y"}
{"compound": "COc1ccc(C(=O)/C=C/c2cc(-c3ccccc3)ccc2OCCN(C)C)c(F)c1", "assignedCategory": "Y"}
{"compound": "COc1ccc(C(=O)/C=C/c2cc(-c3ccccc3OC)ccc2OCCN(C)C)c(F)c1", "assignedCategory": "Y"}
{"compound": "CN(C)CCNc1cccc(C(=O)/C=C/c2ccc(N3CCN(C)CC3)c(-c3ccccc3)c2)c1", "assignedCategory": "N"}
{"compound": "CN(C)CCNc1cccc(C(=O)/C=C/c2cc(N3CCN(C)CC3)ccc2-c2ccccc2)c1", "assignedCategory": "N"}
{"compound": "Cc1cc(C)cc(-c2ccc(OCCN(C)C)c(/C=C/C(=O)c3ccccc3NCCN(C)C)c2)c1", "assignedCategory": "Y"}
{"compound": "Cc1cc(C)cc(-c2ccc(OCCN(C)C)c(/C=C/C(=O)c3cccc(NCCN(C)C)c3)c2)c1", "assignedCategory": "Y"}
{"compound": "CN(C)CCNc1ccccc1C(=O)/C=C/c1ccc(Cl)cc1Cl", "assignedCategory": "N"}
{"compound": "CN(C)CCNc1cccc(C(=O)/C=C/c2cc(-c3ccccc3)cc(N3CCN(C)CC3)c2)c1", "assignedCategory": "N"}
{"compound": "Cc1cc(C)cc(-c2ccc(OCCN(C)C)c(/C=C/C(=O)c3ccccc3CN(C)C)c2)c1", "assignedCategory": "Y"}
{"compound": "Cc1cc(C)cc(-c2ccc(OCCN(C)C)c(/C=C/C(=O)c3ccccc3OCCN(C)C)c2)c1", "assignedCategory": "Y"}
{"compound": "Cc1cc(C)cc(-c2ccc(OCCN(C)C)c(/C=C/C(=O)c3cccc(N)c3)c2)c1", "assignedCategory": "Y"}
{"compound": "CN(C)CCNc1cccc(C(=O)/C=C/c2ccc(Cl)cc2Cl)c1", "assignedCategory": "N"}
{"compound": "CN(C)CCNc1cccc(C(=O)/C=C/c2cc(-c3ccccc3)ccc2N2CCN(C)CC2)c1", "assignedCategory": "N"}
{"compound": "CCCCN(CCCC)c1ccc(/C=C/C(=O)c2ccc(NCCN(C)C)cc2)cc1", "assignedCategory": "Y"}
{"compound": "C=CC(C)(C)c1cc(/C=C/C(=O)c2ccc(O)cc2)c(OC)cc1O [LICOAGROCHACONE A]", "assignedCategory": "N"}
{"compound": "COc1ccc(C(=O)/C=C/c2cc(-c3cccc(C(F)(F)F)c3)ccc2N2CCN(C)CC2)c(F)c1", "assignedCategory": "Y"}
{"compound": "CN(C)CCNc1cccc(C(=O)/C=C/c2ccc(-c3ccccc3)cc2N2CCN(C)CC2)c1", "assignedCategory": "N"}
{"compound": "CN(C)CCNc1ccc(C(=O)/C=C/c2ccc(Cl)cc2)cc1", "assignedCategory": "N"}
{"compound": "CN(C)CCNc1ccc(/C=C/C(=O)c2ccc(Oc3ccccc3)cc2)cc1", "assignedCategory": "Y"}
{"compound": "COc1ccc(C(=O)/C=C/c2cc(C)ccc2OCCN(C)C)c(F)c1", "assignedCategory": "N"}
